Consider the following compounds; for each one, report its z-score.
assay: PSAC antagonists in infected red cells, primary screen, cell-based, P. falciparum Indochina, OD700, 18 h (AID 1157); conditions: P. falciparum Indochina infected erythrocytes, osmotic lysis OD700, 18 h; higher = more signal, called active from +8 up or from −8 down
Numbers only.

Worked examples, 8 compounds total:
COC(=O)[C@H](C)NC(=O)CCC1CC(OC(=O)NCc2cccc3ccccc23)CC2(CCCC(COC(=O)NCCOc3ccccc3)O2)O1 (stereo not given in full) :: 0.346
COC(=O)[C@@H]1CC[C@H](C)[C@@H](c2ccc(Br)cc2)N1 :: -0.0454
COC(=O)[C@H](C)NC(=O)CCC1CC(OC(=O)NCc2ccc3c(c2)OCO3)CC2(CCCC(COC(=O)NCCCN3CCCC3=O)O2)O1 (stereo not given in full) :: -0.169
COC(=O)[C@H](C)NC(=O)CCC1CC(OC(=O)NCCc2ccc(F)cc2)CC2(CCCC(COC(=O)NCC3CCCCC3)O2)O1 (stereo not given in full) :: -0.957
C[C@]12CCC3c4ccc(OCC5CO5)cc4CCC3C1CC[C@@H]2O (stereo not given in full) :: 0.663
CC(=O)OC[C@H]1O[C@H](C#CCC2CCCCC2)C=C[C@@H]1OC(C)=O :: 0.125
COC(=O)[C@@H]1CC[C@H](C)[C@@H](c2ccc(C)cc2)N1C(=O)c1ccc(C=NOC[C@H]2O[C@H](c3ccccc3)C=C[C@@H]2Oc2ccc(OC)cc2)cc1 :: 0.44
CCOC(=O)[C@H](Cc1ccccc1)NC(=O)CCC1CC(OC(=O)NCc2cccc3ccccc23)CC2(CCCC(COC(=O)NCCc3ccccc3OC)O2)O1 (stereo not given in full) :: 0.0286

For every record below, what is its z-score?
1. CO[C@@H]1C=CCC(=O)N[C@@H](C)C(=O)OC[C@@H](NS(=O)(=O)c2ccc(C)cc2)[C@H](C)C=CCC(=O)OC[C@H]1C
2. CC(=O)OC[C@H]1O[C@H](CCON=C(C)CCN2CCCc3nc(C)c(C)cc32)C=C[C@@H]1OC(C)=O

*A*
[0.109, 0.489]

###

biological target: Alpha-bungarotoxin (Bungarus multicinctus) (UniProt P60615); experiment: alpha-bungarotoxin binders on microarray, profiling panel, artefact control for SMM control protein annotation, biochemical, small-molecule microarray, Alexa647 label, 635/667 nm fluorescence (AID 1117); settings: alpha-BTX-A647 binding fluorescence, higher = more signal
Sequence (P60615 whole entry, looked up): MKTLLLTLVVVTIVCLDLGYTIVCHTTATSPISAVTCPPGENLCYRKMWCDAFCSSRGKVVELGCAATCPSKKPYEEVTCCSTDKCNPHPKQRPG
Decision: composite z-score >= 1 yields condition met, all other cases yield condition not met.

CC(CCN1CCCCc2nc(C)c(C)cc21)=NO[C@H](C)c1cn([C@@H]2COC[C@H]2O)nn1 :: condition met
C[C@@H]1C=CCC(=O)OC[C@H](C)C(=O)N[C@@H](Cc2ccccc2)C(=O)OC1 :: condition not met
COc1ccc(COC(=O)NN=C2C[C@@H](O)[C@@H](O)[C@@H]3[C@@H]4C(=O)N(C(C)(C)C)C(=O)[C@@H]4CC[C@@H]23)cc1 :: condition not met

# input for lookup
*Q* Check if composite z-score >= 1 (inclusive). Item: `COC(=O)[C@H](C)NC(=O)CC=C[C@@H](C)[C@@H]1C=C[C@H](O)[C@@H](CO)O1`
*A* condition not met

###

target: Follistatin (Homo sapiens) (UniProt P19883); assay: follistatin binders on small-molecule microarrays, primary screen, biochemical, small-molecule microarray, 635/667 nm fluorescence (AID 1132); settings: FST binding, 635 nm fluorescence, higher = more signal
Sequence (P19883 whole entry, looked up): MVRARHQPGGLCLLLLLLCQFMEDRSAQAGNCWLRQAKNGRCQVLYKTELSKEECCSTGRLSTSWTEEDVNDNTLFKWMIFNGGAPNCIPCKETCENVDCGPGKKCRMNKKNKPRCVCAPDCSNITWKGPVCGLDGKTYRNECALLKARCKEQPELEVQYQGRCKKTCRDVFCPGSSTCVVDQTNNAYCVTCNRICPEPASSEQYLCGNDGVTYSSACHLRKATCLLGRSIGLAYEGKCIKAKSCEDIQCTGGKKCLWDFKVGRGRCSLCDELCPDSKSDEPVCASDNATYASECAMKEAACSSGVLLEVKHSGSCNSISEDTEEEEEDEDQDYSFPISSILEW
measurementKind: composite z-score
Give bare numbers.

Here's what some known entries look like.
CC(C)[C@@H](OCc1ccccc1)[C@H](C)C=NO[C@@H](C)c1cn([C@H](CO)Cc2ccccc2)nn1 :: -0.0854
CN1CCc2nc(-c3ccccc3)c(-c3ccccc3)cc2C1 :: 0.397
O=C1[C@H]2[C@H]3[C@H](O)[C@H](O)CC(=NOC[C@@H](O)COCc4ccco4)[C@@H]3CC[C@H]2C(=O)N1Cc1ccccc1 :: 1.37

Moving on to the next compound.
*Q* # get_value(readout='composite z-score', item= `CC(C)=CCCC(C)=CCON=C1C[C@@H](O)[C@@H](O)[C@@H]2[C@@H]3C(=O)N(Cc4ccc5c(c4)OCO5)C(=O)[C@@H]3CC[C@H]12` )
*A* 0.779
